- Test system: 786-0
- Assay info: NCI tumour cell line growth inhibition, 48 h
The source made the active and inactive calls. No stated cut-off is given here; in the data, active = GI50 up to about 1.1 µM and inactive = higher.
Please provide measured GI50 for the entries that follow.

These recorded examples may help you get a feel for the data.
Compound	Result
CC(=O)[C@]1(O)Cc2c(O)c3c(c(O)c2C(OC2OC(C)C(O)C(O)C2F)C1)C(=O)c1ccccc1C3=O (some centres undefined)	0.0288 µM (active)
COc1cc2c3c(c1OC)Oc1ccc(cc1)CC1c4c(cc(OC)c(OC)c4Oc4ccc(cc4)CC3N(C)CC2)CCN1C (centres undefined)	19.8 µM (inactive)
C=C(CCC/C(C)=C/C=C/[C@H](C)CCCc1ccoc1)C[C@@H]1OC(=O)[C@H](C)[C@@H]1O	11.2 µM (inactive)

# ---- query compound ----
Quick one: GI50 of N#CC12C(=O)N3C(=NC(c4ccco4)NC3c3ccco3)C1(C#N)C(c1ccco1)NC1=C2CCCC1 (centres undefined) ?
> 100 µM (inactive)
